# TARGET_OR_SYSTEM: p38 MAPKα isoform (MAPK14: Invitrogen) (Homo sapiens)
# Sequence (Q16539 whole entry, canonical isoform): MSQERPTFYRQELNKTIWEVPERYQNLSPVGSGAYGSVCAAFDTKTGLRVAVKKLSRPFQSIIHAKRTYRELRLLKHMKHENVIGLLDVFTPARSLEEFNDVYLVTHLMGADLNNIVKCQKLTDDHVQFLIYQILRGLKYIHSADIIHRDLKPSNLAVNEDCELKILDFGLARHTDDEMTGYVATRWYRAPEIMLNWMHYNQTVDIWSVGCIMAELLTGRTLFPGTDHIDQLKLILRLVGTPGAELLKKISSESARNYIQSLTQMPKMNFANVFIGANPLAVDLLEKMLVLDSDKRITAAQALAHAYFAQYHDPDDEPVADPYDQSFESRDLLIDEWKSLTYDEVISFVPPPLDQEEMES
# TEST_SUMMARY: p38 MAPKα enzyme inhibition assay (FRET, Z-LYTE, via MAPKAP-K2 activation)
# MEASUREMENT_SETUP: 2 hr pre-incubation, ATP 10.0 μM; read-out: Enzyme Inhibition IC50 p38α
Known IC50 of a selection of compounds
# unit: nM | format: bare number

CNC(=O)Nc1cc(Oc2ccc(NC(=O)Nc3cc(C(C)(C)C)nn3-c3ccc(O)cc3)c3ccccc23)ccn1 | 5.3

// IC50 lookup, key: "CNC(=O)Nc1cc(Oc2ccc(NC(=O)Nc3cc(C(C)(C)C)nn3-c3ccc(S(C)(=O)=O)cc3)c3ccccc23)ccn1"
36.2

Same lookup for "CNC(=O)Nc1cc(COc2ccc(NC(=O)Nc3cc(C(C)(C)C)nn3-c3ccc(OC)nc3)c(C)c2C)ccn1" , please.
16.2

Same lookup for "CN(C)C(=O)Nc1cc(Oc2ccc(NC(=O)Nc3cc(C(C)(C)C)nn3-c3ccc(S(C)(=O)=O)cc3)c3ccccc23)ccn1" , please.
23.6

Same lookup for "COCC(=O)Nc1cc(Oc2ccc(NC(=O)Nc3cc(C(C)(C)C)nn3-c3ccc(Cl)cc3)c3ccccc23)ccn1" , please.
25

Same lookup for "COCC(=O)Nc1cc(Oc2ccc(NC(=O)Nc3cc(C4(C)CCOCC4)nn3-c3ccc(C)cc3)c3ccccc23)ccn1" , please.
3.6

Same lookup for "COCC(=O)Nc1cc(Oc2ccc(NC(=O)Nc3cc(C(C)(C)C)nn3-c3ccc(CO)c(Cl)c3)c3ccccc23)ccn1" , please.
10.7

Same lookup for "CC(C)(C)c1cc(NC(=O)Nc2ccc(Oc3ccnc(NC(N)=O)c3)c3ccccc23)n(-c2ccc(S(C)(=O)=O)cc2)n1" , please.
18.9

Same lookup for "COCC(=O)Nc1cc(Oc2ccc(NC(=O)Nc3cc(C(C)(C)C)nn3-c3ccc(NS(C)(=O)=O)cc3)c3ccccc23)ccn1" , please.
13

Same lookup for "CNS(=O)(=O)Cc1ccc(-n2nc(C(C)(C)C)cc2NC(=O)Nc2ccc(Oc3ccnc(NC(=O)COC)c3)c3ccccc23)cc1" , please.
17.1

Same lookup for "COCC(=O)Nc1cc(Oc2ccc(NC(=O)Nc3cc(C(C)(C)C)nn3-c3ccc(O)nc3)c3ccccc23)ccn1.Cl" , please.
14.3

Same lookup for "COCC(=O)Nc1cc(Oc2ccc(NC(=O)Nc3cc(-c4ccccc4)nn3-c3ccccc3)c3ccccc23)ccn1" , please.
0.4

Same lookup for "COCC(=O)Nc1cc(Oc2ccc(NC(=O)Nc3cc(C(C)(C)C)nn3-c3ccc(OC)c(Cl)c3)c3ccccc23)ccn1" , please.
9.1

Same lookup for "CCNC(=O)Nc1cc(C(=O)c2ccc(NC(=O)Nc3cc(C(C)(C)C)nn3-c3ccc(C)cc3)c3ccccc23)ccn1" , please.
18.8

Same lookup for "COCC(=O)Nc1cc(Sc2ccc(NC(=O)Nc3cc(C(C)(C)C)nn3-c3ccc(C)cc3)c3ccccc23)ccn1" , please.
26

Same lookup for "COCC(=O)Nc1cc(Oc2ccc(NC(=O)Nc3cc(C45CC6CC(CC(C6)C4)C5)nn3-c3ccc(C)cc3)c3ccccc23)ccn1" , please.
74.3

Same lookup for "COCC(=O)Nc1cc(C(=O)c2ccc(NC(=O)Nc3cc(C(C)(C)C)nn3-c3ccc(C)cc3)c3ccccc23)ccn1" , please.
7.3
